Hey, just so you know, these numbers are from patent US6160166A.

test system: chick chorioallantoic membrane (CAM); experiment: Chick egg chorioallantoic membrane (CAM) assay, 6-day, growing vessels: inhibition of angiogenesis; type: in vivo; conditions: Gallus gallus; Tables 1 and 2; dose not given; Em = number of embryos; read-out: % Ih (Inhibition)
# thresholds on inhibition in vivo at 70 nmol define classes: class A: < 10%; class B: ≥ 10% and < 50%; class C: ≥ 50%

Ask: Band of O=C(Nc1ccc(P(=O)(O)O)cc1)Nc1ccc(P(=O)(O)O)cc1 ?
Result: class C

Ask: Band of O=C(Nc1ccc(OC(=O)P(=O)(O)O)cc1)Nc1ccc(OC(=O)P(=O)(O)O)cc1 ?
Result: class A

Ask: Band of O=C(Nc1ccc(C(=O)Nc2cccc(P(=O)(O)O)c2)cc1)Nc1ccc(C(=O)Nc2cccc(P(=O)(O)O)c2)cc1 ?
Result: class C

Ask: Band of O=C(Nc1ccccc1OC(=O)P(=O)(O)O)Nc1ccccc1OC(=O)P(=O)(O)O ?
Result: class B

Ask: Band of O=C(Nc1cccc(P(=O)(O)O)c1)Nc1cccc(P(=O)(O)O)c1 ?
Result: class A

Ask: Band of O=C(Nc1ccc(C(=O)Nc2ccc(P(=O)(O)O)cc2)cc1)Nc1ccc(C(=O)Nc2ccc(P(=O)(O)O)cc2)cc1 ?
Result: class C

Ask: Band of O=C(Nc1cccc(C(=O)Nc2ccc(P(=O)(O)O)cc2)c1)Nc1cccc(C(=O)Nc2ccc(P(=O)(O)O)cc2)c1 ?
Result: class C

Ask: Band of O=C(Nc1cccc(C(=O)Nc2cccc(P(=O)(O)O)c2)c1)Nc1cccc(C(=O)Nc2cccc(P(=O)(O)O)c2)c1 ?
Result: class A

Ask: Band of O=C(Nc1cccc(OC(=O)P(=O)(O)O)c1)Nc1cccc(OC(=O)P(=O)(O)O)c1 ?
Result: class B

Ask: Band of Cc1cc(NC(=O)Nc2ccc(OC(=O)P(=O)(O)O)c(C)c2)ccc1OC(=O)P(=O)(O)O ?
Result: class B
